Molecular target: HEK cells stably transfected with tetracycline inducible hNR1 and hNR2A (Homo sapiens, UniProt Q05586+Q12879)
Construct: expressed in transfected cells; host or cells: HEK cells, stably transfected, tetracycline/doxycycline inducible
Sequence (Q12879 23-1464, other chains not shown): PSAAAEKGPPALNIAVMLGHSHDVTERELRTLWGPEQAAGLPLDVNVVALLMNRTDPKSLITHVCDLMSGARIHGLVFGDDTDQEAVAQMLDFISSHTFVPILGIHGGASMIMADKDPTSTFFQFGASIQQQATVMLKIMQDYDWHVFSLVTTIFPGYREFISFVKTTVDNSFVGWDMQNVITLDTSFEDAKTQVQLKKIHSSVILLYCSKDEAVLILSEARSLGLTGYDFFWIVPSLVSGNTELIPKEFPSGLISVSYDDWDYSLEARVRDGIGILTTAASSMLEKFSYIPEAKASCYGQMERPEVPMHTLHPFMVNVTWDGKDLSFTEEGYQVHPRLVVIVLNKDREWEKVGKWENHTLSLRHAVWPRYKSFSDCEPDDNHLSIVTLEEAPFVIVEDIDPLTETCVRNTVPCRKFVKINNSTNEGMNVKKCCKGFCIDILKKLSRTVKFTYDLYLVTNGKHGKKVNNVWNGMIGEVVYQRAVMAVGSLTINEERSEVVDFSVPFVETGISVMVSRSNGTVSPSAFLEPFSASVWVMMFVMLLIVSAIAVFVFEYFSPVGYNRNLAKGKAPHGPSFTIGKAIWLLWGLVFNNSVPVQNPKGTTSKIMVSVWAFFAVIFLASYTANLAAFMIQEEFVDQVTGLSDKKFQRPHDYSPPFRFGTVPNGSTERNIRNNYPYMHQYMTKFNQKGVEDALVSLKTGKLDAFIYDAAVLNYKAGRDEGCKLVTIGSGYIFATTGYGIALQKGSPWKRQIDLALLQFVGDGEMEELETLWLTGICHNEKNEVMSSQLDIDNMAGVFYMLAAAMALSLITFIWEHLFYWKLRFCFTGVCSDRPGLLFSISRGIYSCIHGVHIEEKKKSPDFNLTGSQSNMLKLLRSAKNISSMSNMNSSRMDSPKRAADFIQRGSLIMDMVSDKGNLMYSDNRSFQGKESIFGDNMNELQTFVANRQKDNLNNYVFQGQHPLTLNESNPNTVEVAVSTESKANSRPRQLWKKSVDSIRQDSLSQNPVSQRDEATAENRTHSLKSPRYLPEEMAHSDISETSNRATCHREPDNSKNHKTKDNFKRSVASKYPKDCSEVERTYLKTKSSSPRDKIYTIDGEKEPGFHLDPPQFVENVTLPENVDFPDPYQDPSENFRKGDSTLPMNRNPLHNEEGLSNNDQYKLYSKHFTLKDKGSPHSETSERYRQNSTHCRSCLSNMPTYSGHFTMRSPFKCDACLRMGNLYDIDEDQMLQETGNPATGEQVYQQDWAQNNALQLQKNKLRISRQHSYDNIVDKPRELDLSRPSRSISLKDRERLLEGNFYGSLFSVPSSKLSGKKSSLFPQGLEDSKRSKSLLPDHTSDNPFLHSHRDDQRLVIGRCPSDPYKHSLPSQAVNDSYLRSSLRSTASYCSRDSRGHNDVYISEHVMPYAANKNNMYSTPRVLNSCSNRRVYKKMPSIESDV
Assay: Assay 1: Cell-Based Assay, cytosolic calcium response to positive allosteric modulators (with 30 μM glycine and 300 nM L-glutamate, EC30)
Settings: Table 2; cytosolic calcium response, with 30 μM glycine and 300 nM L-glutamate (EC30); — = no plateau was reached
Endpoint Name: log10 of EC50 (log10 of the value in nM)

>>> experimental_value("CCNC(=O)c1c(C2CC2)sc2nc(COc3ccc(F)cc3)cc(=O)n12")
4.61
>>> experimental_value("Cc1sc2nc(CN(CCF)c3ccc(F)cc3)cc(=O)n2c1C1CC1CO (single isomer, unassigned)")
1.52
>>> experimental_value("Cc1sc2nc(COc3ccc(F)cc3)cc(=O)n2c1C(=O)C1CC1")
4.41
>>> experimental_value("CCN(Cc1cc(=O)n2c(C(=O)NC)c(C)sc2n1)c1ccc(F)cc1")
2.77
>>> experimental_value("CNC(=O)Cc1c(C)sc2nc(COc3ccc(F)cc3)cc(=O)n12")
4.29
>>> experimental_value("Cc1sc2nc(Cc3cccc(C(F)(F)F)c3F)cc(=O)n2c1CO")
4.65
>>> experimental_value("Cc1sc2nc(Cc3cc(C#N)ccc3C3CC3)cc(=O)n2c1[C@@H]1C[C@H]1CO (relative stereo)")
3.76
>>> experimental_value("CCN(Cc1cc(=O)n2c(N(C)C)c(C)sc2n1)c1ccc(F)cc1")
3.70
>>> experimental_value("Cc1sc2nc(CN(CC(F)F)c3ccc(F)cc3)cc(=O)n2c1-c1cncnc1")
2.88
>>> experimental_value("Cc1sc2nc(COc3ccc(F)cc3)c(F)c(=O)n2c1[C@@H]1C[C@H]1CO (relative stereo)")
4.24
>>> experimental_value("CCN(Cc1cc(=O)n2c(-c3ccc(N)nc3)c(C)sc2n1)c1ccc(F)cc1")
4.61
>>> experimental_value("CCN(Cc1cc(=O)n2c(C#N)c(C)sc2n1)c1cc(F)cc(F)c1")
3.11
>>> experimental_value("CCN(Cc1cc(=O)n2c(C(C)C)c(C)sc2n1)c1ccc(F)cc1")
3.46
>>> experimental_value("CCNC(=O)c1c(C(F)(F)F)sc2nc(Cn3nc(C(F)(F)F)cc3C3CC3)cc(=O)n12")
3.15
>>> experimental_value("CCN(Cc1cc(=O)n2c(C3CC3C(N)=O)c(C)sc2n1)c1ccc(F)cc1 (stereo not drawn)")
3.41
>>> experimental_value("CNC(=O)c1c(C)sc2nc(Cc3cccc(CF)c3F)cc(=O)n12")
3.62
>>> experimental_value("CCc1c(C)sc2nc(CN(CC)c3ccc(F)cc3)cc(=O)n12")
3.28
>>> experimental_value("CCN(Cc1cc(=O)n2c([C@@H]3C[C@H]3CF)c(C)sc2n1)c1ccc(F)cc1 (relative stereo)")
2.98
>>> experimental_value("CCN(Cc1cc(=O)n2c(C#N)c(C)sc2n1)c1ccc(F)c(F)c1")
2.93
>>> experimental_value("CCN(Cc1cc(=O)n2c(CC#N)c(C)sc2n1)c1ccc(F)cc1")
3.08
>>> experimental_value("Cc1sc2nc(CN3c4ccccc4CC3C)cc(=O)n2c1C#N (stereo not drawn)")
3.40
>>> experimental_value("Cc1sc2nc(COc3ccc(F)cc3)cc(=O)n2c1C1CC1C#N (single isomer, unassigned) [Example 4.20]")
3.38
>>> experimental_value("Cc1sc2nc(Cc3cccc(C(F)(F)F)c3F)cc(=O)n2c1C(=O)NCC#N")
4.18
>>> experimental_value("Cc1sc2nc(COc3ccc(F)cc3)cc(=O)n2c1C(=O)NCC#N")
3.98
>>> experimental_value("CCN(Cc1cc(=O)n2c3c(sc2n1)CCC3CO)c1ccc(F)cc1 (single isomer, unassigned) [Example 8.3]")
3.11
>>> experimental_value("Cc1sc2nc(COc3ccc(F)cc3)cc(=O)n2c1C1CC1CO (single isomer, unassigned) [Example 4.1]")
3.71
>>> experimental_value("CCN(Cc1cc(=O)n2c(-c3nccs3)c(C)sc2n1)c1ccc(F)cc1")
2.83
>>> experimental_value("CCN(Cc1cc(=O)n2c(-c3cncnc3)c(C3CC3)sc2n1)c1ccc(F)cc1")
3.85
>>> experimental_value("CCN(Cc1cc(=O)n2c(-c3cccnc3)c(C)sc2n1)c1ccc(F)cc1")
2.77
>>> experimental_value("CCN(Cc1cc(=O)n2c(-c3cn[nH]c3)c(C)sc2n1)c1ccc(F)cc1")
3.45
>>> experimental_value("Cc1sc2nc(COc3ccc(F)cc3)cc(=O)n2c1-c1cncnc1")
3.76
>>> experimental_value("Cc1sc2nc(COc3ccc(F)cc3)cc(=O)n2c1C1CC1CO (single isomer, unassigned) [Example 4.2]")
3.11
>>> experimental_value("CNC(=O)c1c(C)sc2nc(Cc3cccc(C(F)(F)F)c3F)cc(=O)n12")
3.87
